Study Target: UniProt P35372
Sequence (P35372 whole entry): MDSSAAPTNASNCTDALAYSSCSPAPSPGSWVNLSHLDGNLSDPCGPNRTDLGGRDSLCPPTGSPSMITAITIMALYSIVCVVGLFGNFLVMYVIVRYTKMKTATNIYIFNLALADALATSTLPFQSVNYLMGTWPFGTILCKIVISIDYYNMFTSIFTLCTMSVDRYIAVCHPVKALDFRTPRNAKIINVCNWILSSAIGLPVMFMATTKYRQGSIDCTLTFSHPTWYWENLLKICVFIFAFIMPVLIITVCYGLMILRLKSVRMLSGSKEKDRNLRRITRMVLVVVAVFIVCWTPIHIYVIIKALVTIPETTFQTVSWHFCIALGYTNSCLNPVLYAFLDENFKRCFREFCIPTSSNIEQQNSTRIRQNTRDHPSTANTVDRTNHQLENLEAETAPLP
Test Details: Bioprofiling 6pt Antag Opioid mu CHO
Condition Info: antagonist readout vs DAMGO
Quick list: IC50 per entry.

{"Structure String": "N#Cc1ccc2nc(NC(=O)c3ccc(C(F)(F)F)nc3)n(CC(F)(F)F)c2c1", "IC50": "> 10 µM"}
{"Structure String": "Cn1nccc1C(=O)Nc1nc2ccc(C#N)cc2n1CC(C)(C)C", "IC50": "> 10 µM"}
{"Structure String": "COc1ccc(C(=O)Nc2nc3ccc(C#N)cc3n2CC(F)(F)F)cn1", "IC50": "> 10 µM"}

###

Study Target: H1 (Homo sapiens)
Sequence (P35367 whole entry): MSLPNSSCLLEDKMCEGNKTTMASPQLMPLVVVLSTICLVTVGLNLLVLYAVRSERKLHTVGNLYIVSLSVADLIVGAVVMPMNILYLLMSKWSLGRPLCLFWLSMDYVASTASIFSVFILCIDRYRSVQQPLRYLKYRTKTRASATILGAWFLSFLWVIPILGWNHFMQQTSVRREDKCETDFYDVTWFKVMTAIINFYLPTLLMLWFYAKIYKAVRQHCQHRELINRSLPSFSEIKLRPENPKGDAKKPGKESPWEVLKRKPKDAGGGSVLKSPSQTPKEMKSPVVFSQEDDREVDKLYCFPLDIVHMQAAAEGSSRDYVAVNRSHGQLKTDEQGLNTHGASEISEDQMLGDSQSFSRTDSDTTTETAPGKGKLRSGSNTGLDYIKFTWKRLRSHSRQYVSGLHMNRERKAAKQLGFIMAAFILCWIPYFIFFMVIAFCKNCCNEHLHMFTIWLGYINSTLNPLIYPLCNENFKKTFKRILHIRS
Test Details: Bioprofiling 6pt Antag H1 CHO
Condition Info: antagonist readout vs Histamine
We begin with a simple list: items and their reported IC50.
Observed Property: IC50

{"Compound": "COc1ccc(C(=O)Nc2nc3ccc(C#N)cc3n2CC(F)(F)F)cn1 [Compound 43]", "Meas Value": "> 10 µM"}
{"Compound": "Cn1nccc1C(=O)Nc1nc2ccc(C#N)cc2n1CC(F)(F)F [Compound 30]", "Meas Value": "> 10 µM"}
{"Compound": "N#Cc1ccc2nc(NC(=O)c3ccc(C(F)(F)F)nc3)n(CC(F)(F)F)c2c1 [Compound 45]", "Meas Value": "> 10 µM"}
